Molecular target: recombinant human HDAC8 (Homo sapiens, UniProt Q9BY41)
Construct: made in house; host or cells: insect cells
Sequence (Q9BY41 whole entry): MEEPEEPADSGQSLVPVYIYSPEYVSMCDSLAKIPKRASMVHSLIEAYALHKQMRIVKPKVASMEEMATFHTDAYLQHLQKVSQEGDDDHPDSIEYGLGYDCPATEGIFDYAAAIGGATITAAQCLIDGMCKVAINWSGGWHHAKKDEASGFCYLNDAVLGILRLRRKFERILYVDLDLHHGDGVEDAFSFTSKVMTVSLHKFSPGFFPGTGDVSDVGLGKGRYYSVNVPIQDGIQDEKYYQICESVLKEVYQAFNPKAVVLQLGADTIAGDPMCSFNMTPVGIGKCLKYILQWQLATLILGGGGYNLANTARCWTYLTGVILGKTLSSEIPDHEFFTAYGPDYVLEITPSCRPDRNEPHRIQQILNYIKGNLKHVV
Experiment: HDAC8 inhibition: recombinant HDAC8 fluorometric assay
Type: biochemical
Settings: recombinant human HDAC8, substrate Ac-Arg-His-Lys-Lys(ε-acetyl)-AMC; read-out: HDAC8 IC50
Listed here: items and their measured pIC50.
Recall that pIC50 is obtained by taking minus log10 of the concentration measured in molar.

Solved cases (5 shown):
Query: Param readout = pIC50; param system = recombinant human HDAC8 (Homo sapiens, UniProt Q9BY41); param query = O=C(NO)c1ccc(NC2CCN(c3cccc(-c4ccccc4)c3)C2=O)cc1 (stereo not drawn) [Example 32] ; response: value
Reply: 6.15

Query: Param readout = pIC50; param system = recombinant human HDAC8 (Homo sapiens, UniProt Q9BY41); param query = CC1(Nc2ccc(C(=O)NO)cc2)C(=O)N(Cc2cccc(Cl)c2)c2ccccc21 (stereo not drawn) [Example 93] ; response: value
Reply: 5.72

Query: Param readout = pIC50; param system = recombinant human HDAC8 (Homo sapiens, UniProt Q9BY41); param query = O=C(NO)c1ccc(NC2CCN(c3ccc4ccccc4c3)C2=O)cc1 (stereo not drawn) [Example 38] ; response: value
Reply: 5.82

Query: Param readout = pIC50; param system = recombinant human HDAC8 (Homo sapiens, UniProt Q9BY41); param query = CC1(Nc2ccc(C(=O)NO)cc2)C(=O)N(Cc2ccccc2Cl)c2ccc(F)cc21 (stereo not drawn) [Example 99] ; response: value
Reply: 5.91

Query: Param readout = pIC50; param system = recombinant human HDAC8 (Homo sapiens, UniProt Q9BY41); param query = O=C(NO)c1ccc(NC2CCN(c3ccc(Cl)cc3)C2)cc1 (stereo not drawn) [Example 80] ; response: value
Reply: 5.33

Others:
Query: Param readout = pIC50; param system = recombinant human HDAC8 (Homo sapiens, UniProt Q9BY41); param query = O=C(NO)c1ccc(NC2CCN(c3ccc(C(F)(F)F)cc3)C2=O)cc1 (stereo not drawn) [Example 12] ; response: value
Reply: 6.00

Query: Param readout = pIC50; param system = recombinant human HDAC8 (Homo sapiens, UniProt Q9BY41); param query = C[C@H]1[C@H](Nc2ccc(C(=O)NO)cc2)CC(=O)N1c1ccc(Cl)cc1 (racemic) [Example 77] ; response: value
Reply: 6.07

Query: Param readout = pIC50; param system = recombinant human HDAC8 (Homo sapiens, UniProt Q9BY41); param query = CC(C)(c1ccc(Cl)cc1)N1CCC(Nc2ccc(C(=O)NO)cc2)C1=O (stereo not drawn) [Example 50] ; response: value
Reply: 6.17

====

Biological target: recombinant human HDAC8 (Homo sapiens, UniProt Q9BY41)
Construct: made in house; host or cells: insect cells
Assay: HDAC8 inhibition: recombinant HDAC8 fluorometric assay
Assay type: biochemical
Settings: recombinant human HDAC8, substrate Ac-Arg-His-Lys-Lys(ε-acetyl)-AMC; read-out: HDAC8 IC50
readout.type: IC50 (nM)
The answer is to be given in nM; state only the numeric part.

Solved cases (3 shown):
Query: IC50 for COc1cccc(N2CC(Nc3ccc(C(=O)NO)cc3)CC2=O)c1 (stereo not shown) ?
Reply: 1010

Query: IC50 for O=C(NO)c1ccc(NC2CCN(Cc3ccccc3)C2=O)cc1 (stereo not shown) ?
Reply: 650

Query: IC50 for O=C(NO)c1ccc(NC2CCN(c3cccc(Cl)c3)C2=O)cc1 (stereo not shown) ?
Reply: 720

Others:
Query: IC50 for O=C(NO)c1ccc(NC2CC(=O)N(c3cccc(Cl)c3)C2)cc1 (stereo not shown) ?
Reply: 1480

Query: IC50 for CC1(Nc2ccc(C(=O)NO)cc2)CCN(c2ccc(Cl)cc2)C1=O (stereo not shown) ?
Reply: 920

Query: IC50 for O=C(NO)c1ccc(NC2CCN(c3ccc(Cl)cc3Cl)C2=O)cc1 (stereo not shown) ?
Reply: 1410
